System: GFP-9S motif 4 KD (synthetic construct)
Experiment: HRP pulldown
Settings: lysate; Kd above 200 nM called unreliable; HRP: 50 mM Tris pH 8, 150 mM NaCl, 1 mM bME, 50 ug/ml BSA, 3 ug/ml yeast RNA, 0.5% heparin, 2 nM RNA; ITC (25 C) and FP: Tris pH 8, 200 mM KCl, 5% glycerol …
Listing: Kd of selected sequences

[
  {
    "SEQUENCE": "AUUAAACGUGA [IR-rpoA-A]",
    "Kd": "409 nM"
  },
  {
    "SEQUENCE": "AUUAGACGUGA [Cy5-rpoA-G]",
    "Kd": "315 nM"
  },
  {
    "SEQUENCE": "AUUAUACGUGA [IR-rpoA-U]",
    "Kd": "279 nM"
  }
]
